# Test system: ATS189
# experimental-protocol: qHTS profiling for inhibitors of Plasmodium falciparum proliferation (AID 504749); note: nearly all actives have a fitted effect of over 60% in size
# cond: P. falciparum in erythrocytes, SYBR Green DNA, 72 h; series mostly up to 28.7 µM
Inconclusive results are not listed. Calls of active or inactive are those of the source. Calls come from the whole dose curve; as a rule, active = well fitted inhibition curve with a large enough effect; inconclusive = small, poorly fitted or top-dose-only effect; inactive = flat fitted curve, though single readings scatter.
Would you mind answering with one of these outcomes? TRUE for active, FALSE for inactive

Recorded results for 2 compounds are shown here.
Lookup: Write down the call the test reported for this compound. Item: OC(O)C(Cl)(Cl)Cl
Found: FALSE

Lookup: Write down the call the test reported for this compound. Item: CCC1(CC)C(=O)NC(=O)NC1=O
Found: FALSE

New cases:
Lookup: Write down the call the test reported for this compound. Item: CCCCCCCCCCCC[N+](C)(C)CCOc1ccccc1
Found: TRUE

----------
# cond: Ebola virus entry assay, blue channel fluorescence
Calls of active or inactive are those of the source. The rule behind the calls is not given here.
Would you mind answering with one of these outcomes? y for active, n for inactive

Recorded results for 4 molecules are shown here.
Lookup: Write down the call the test reported for this molecule. Item: Cc1ccc(O)c(-n2nc3ccccc3n2)c1
Found: n

Lookup: Write down the call the test reported for this molecule. Item: CCCCc1cc2ccccc2c(OCCN(C)C)n1
Found: y

Lookup: Write down the call the test reported for this molecule. Item: COc1ccc2[nH]cc(CCN(C(C)C)C(C)C)c2c1
Found: y

Lookup: Write down the call the test reported for this molecule. Item: C[C@]12C=CC(=O)C=C1CC[C@H]1[C@@H]3C[C@@H](O)[C@](O)(C(=O)CO)[C@@]3(C)C[C@H](O)[C@@]12F
Found: n

New cases:
Lookup: Write down the call the test reported for this molecule. Item: CC/C(=C(/CC)c1ccc(O)cc1)c1ccc(O)cc1
Found: n

Lookup: Write down the call the test reported for this molecule. Item: Cc1ccc(N(CC2=NCCN2)c2cccc(O)c2)cc1
Found: y

----------
# cond: Ebola virus entry assay, blue channel fluorescence
Active and inactive are the calls of the source. The rule behind the calls is not given here.
experimental-readout: AC50

Lookup: // query AC50 value for entry CSc1ccc(/C=C2/C(C)=C(CC(=O)O)c3cc(F)ccc32)cc1
Found: inactive

Lookup: // query AC50 value for entry O=c1[nH]c2cc(Cl)ccc2n1C1CCNCC1
Found: inactive

Lookup: // query AC50 value for entry CCOC(CN1CCN(CC(C)C(=O)c2ccccc2)CC1)c1ccccc1 (stereo unspecified)
Found: 7.08 µM (active)

Lookup: // query AC50 value for entry CCCCNc1ccc(C(=O)OCCN(C)C)cc1
Found: 20 µM (active)

Lookup: // query AC50 value for entry N[C@@H](CSSC[C@H](N)C(=O)O)C(=O)O
Found: inactive

Lookup: // query AC50 value for entry CC1=CC(=O)c2ccccc2C1=O
Found: inactive

Lookup: // query AC50 value for entry NS(=O)(=O)c1cc2c(cc1Cl)NC(C1CC3C=CC1C3)NS2(=O)=O (stereo unspecified)
Found: inactive

Lookup: // query AC50 value for entry CCCCC(=O)O[C@]1(C(=O)CO)[C@@H](C)C[C@H]2[C@@H]3CCC4=CC(=O)C=C[C@]4(C)[C@@]3(F)[C@@H](O)C[C@@]21C
Found: inactive

Lookup: // query AC50 value for entry COC(=O)C1=C(C)NC(C)=C(C(=O)OCCCN2CCC(c3ccccc3)(c3ccccc3)CC2)C1c1cccc([N+](=O)[O-])c1 (stereo unspecified)
Found: 2.82 µM (active)

Lookup: // query AC50 value for entry O=C(O)Cc1ccccc1
Found: inactive

Attention now shifts to the item below.
Lookup: // query AC50 value for entry CN1CCC(N(Cc2ccccc2)c2ccccc2)CC1
Found: 7.08 µM (active)

----------
# cond: Ebola virus entry assay, ratio channel
Active and inactive are the calls of the source. No rule for the calls is given here.
Would you mind answering with one of these outcomes? YES (active), NO (inactive)

Recorded results for 3 molecules are shown here.
Lookup: Write down the call the test reported for this molecule. Item: Cc1cccc(N(C)C(=S)Oc2ccc3c(c2)CCC3)c1
Found: NO

Lookup: Write down the call the test reported for this molecule. Item: O=C1c2ccccc2C(=O)C1c1ccc(Br)cc1
Found: NO

Lookup: Write down the call the test reported for this molecule. Item: CN(C)CCCN1c2ccccc2Sc2ccccc21
Found: YES

As a next step, examine the molecule that follows.
Lookup: Write down the call the test reported for this molecule. Item: ClCCCN1CCN(c2cccc(Cl)c2)CC1
Found: NO

----------
efficacy reference
# cond: Ebola virus entry assay, green fluorescence channel
Results with a measured potency or affinity are listed apart.
Report the figure in % without appending any unit label.

Example entries begin here.
Lookup: // query efficacy value for entry CC1Sc2c(C(=O)O)c(=O)c3cc(F)c(N4CCNCC4)cc3n21 (centres undefined)
Found: 10.3

Lookup: // query efficacy value for entry CCCCCOc1ccccc1/C(=C\SC)n1ccnc1
Found: 106

Lookup: // query efficacy value for entry C[N+](C)(C)CCOC(=O)C(O)(c1ccccc1)c1ccccc1
Found: -27.9

New cases:
Lookup: // query efficacy value for entry CC(=O)OCC(=O)[C@@]1(O)CC[C@H]2[C@@H]3CCC4=CC(=O)C=C[C@]4(C)[C@H]3[C@@H](O)C[C@@]21C
Found: -46.1

Lookup: // query efficacy value for entry COc1ccc(CCC(C)=O)cc1
Found: 11.4

----------
# Tested on: N140
# experimental-protocol: qHTS profiling for inhibitors of Plasmodium falciparum proliferation (AID 504749); note: nearly all actives have a fitted effect of over 60% in size
# cond: P. falciparum in erythrocytes, SYBR Green DNA, 72 h; series mostly up to 28.7 µM
Results filed as inconclusive are left out. Calls of active or inactive are those of the source. Calls follow the shape of the dose curve; as a rule, active = well fitted inhibition curve with a large enough effect; inconclusive = small, poorly fitted or top-dose-only effect; inactive = flat fitted curve, though single readings scatter.
Would you mind answering with one of these outcomes? T (active), F (inactive)

Recorded results for 4 molecules are shown here.
Lookup: Write down the call the test reported for this molecule. Item: COP(=S)(OC)Oc1ccc(Sc2ccc(OP(=S)(OC)OC)cc2)cc1
Found: F

Lookup: Write down the call the test reported for this molecule. Item: C[C@]12CC[C@H]3[C@@H](CC=C4C[C@@H](O)CC[C@@]43C)[C@@H]1CC[C@@H]2O
Found: F

Lookup: Write down the call the test reported for this molecule. Item: CCC1(CC)C(=O)NC(=O)NC1=O
Found: F

Lookup: Write down the call the test reported for this molecule. Item: CN1C[C@@H](NS(=O)(=O)N(C)C)C[C@@H]2c3cccc4c3c(cn4C)C[C@H]21
Found: F

New cases:
Lookup: Write down the call the test reported for this molecule. Item: CCCCCCCCCCCC[N+](C)(C)CCOc1ccccc1
Found: T

----------
# experimental-protocol: qHTS of pediatric cancer cell lines to identify multiple opportunities for drug repurposing: Primary screen for DAOY cells (AID 1347090);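 note: plate controls were DMSO for no effect and bortezomib for full effect; nearly all actives have a fitted effect of over 55% in size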
# cond: DAOY medulloblastoma viability, CellTiter-Glo luminescence, 48 h; series mostly up to 46 µM
Results filed as inconclusive are left out. Activity calls are given as the source filed them. The call rests on the fitted dose curve; in most records, active means well fitted cell-killing curve with a large enough effect; inconclusive means small, poorly fitted or top-dose-only effect; inactive means flat fitted curve, though single readings scatter.
experimental-readout: outcome

Lookup: // query outcome value for entry ClCc1cccc(Cl)c1
Found: inactive

Lookup: // query outcome value for entry CC(Cc1ccccc1)NCCCCl (stereo not drawn)
Found: inactive

Lookup: // query outcome value for entry C[C@@H]1CN(C2CCC(C#N)(c3ccc(F)cc3)CC2)CC[C@]1(C(=O)O)c1ccccc1 (stereo partly drawn)
Found: inactive

----------
# experimental-protocol: qHTS assay to identify small molecule inhibitors of chordoma cells - UCH-2 (AID 1259356); note: % is set by controls: 0 for no effect and ±100 for the full control effect
# cond: UCH-2 chordoma viability, CellTiter-Glo ATP luminescence, 48 h; series mostly up to 46.1 µM
Records with an inconclusive call do not appear. Calls of active or inactive are those of the source. The call rests on the fitted dose curve; in most records, active means well fitted cell-killing curve with a large enough effect; inconclusive means small, poorly fitted or top-dose-only effect; inactive means flat fitted curve, though single readings scatter.
experimental-readout: outcome

Example entries begin here.
Lookup: // query outcome value for entry C[C@H](N)[C@H](O)c1ccc(O)c(O)c1
Found: inactive

Lookup: // query outcome value for entry Oc1ccc2[nH]cc(CCCCN3CC=C(c4ccccc4)CC3)c2c1
Found: inactive

Lookup: // query outcome value for entry C#C[C@]1(O)CC[C@H]2[C@@H]3CCC4=CC(=O)CCC4=C3C=C[C@@]21CC
Found: inactive

Lookup: // query outcome value for entry CN1C(=O)CN=C(c2ccccc2)c2cc([N+](=O)[O-])ccc21
Found: inactive

New cases:
Lookup: // query outcome value for entry CN1CCc2cc(Cl)c(O)cc2[C@H]2c3ccccc3CC[C@@H]21
Found: inactive

Lookup: // query outcome value for entry CNC(=O)NC(O)C(Cl)(Cl)Cl (stereo not drawn)
Found: inactive

----------
# cond: Ebola virus entry assay, reporter ratio channel; Channel type: primary
The source made the active and inactive calls. How the calls were made is not given here.
Would you mind answering with one of these outcomes? True = active, False = inactive

Lookup: Write down the call the test reported for this compound. Item: Cn1cnc2c1c(=O)[nH]c(=O)n2C
Found: False

Lookup: Write down the call the test reported for this compound. Item: C[N+](C)(C)CCOC(=O)CCC(=O)OCC[N+](C)(C)C
Found: False

Lookup: Write down the call the test reported for this compound. Item: CCOC(C(=O)OCCN(C)C)(c1ccccc1)c1ccccc1
Found: True

New cases:
Lookup: Write down the call the test reported for this compound. Item: CCC(C)(C)c1ccc(CC(C)CN2C[C@@H](C)O[C@@H](C)C2)cc1 (stereo partly drawn)
Found: True

Lookup: Write down the call the test reported for this compound. Item: CCCCCCCCCCCCCCCC[n+]1ccccc1
Found: True
